Molecular target: Alkaline phosphatase, tissue-nonspecific isozyme (Bos taurus, UniProt P09487)
Sequence (P09487 whole entry): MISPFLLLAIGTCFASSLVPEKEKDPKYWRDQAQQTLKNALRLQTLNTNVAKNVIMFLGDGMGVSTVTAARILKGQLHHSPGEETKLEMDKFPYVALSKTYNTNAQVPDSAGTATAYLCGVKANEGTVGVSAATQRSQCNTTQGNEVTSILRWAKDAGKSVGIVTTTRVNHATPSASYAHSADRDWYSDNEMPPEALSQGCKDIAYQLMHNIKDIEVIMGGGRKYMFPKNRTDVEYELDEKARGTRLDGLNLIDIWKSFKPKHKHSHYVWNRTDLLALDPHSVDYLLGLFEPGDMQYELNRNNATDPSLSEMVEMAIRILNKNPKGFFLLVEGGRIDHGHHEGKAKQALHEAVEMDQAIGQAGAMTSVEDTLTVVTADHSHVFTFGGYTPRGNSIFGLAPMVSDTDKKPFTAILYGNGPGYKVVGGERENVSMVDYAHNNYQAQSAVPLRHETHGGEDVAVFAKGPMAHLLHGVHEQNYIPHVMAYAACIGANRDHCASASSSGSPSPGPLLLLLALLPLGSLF
pIC50: −log10 of the molar value.
This section presents pIC50 values reported for Alkaline phosphatase, tissue-nonspecific isozyme (Bos taurus, UniProt P09487) in the literature.
endpoint: pIC50

molecule=NS(=O)(=O)c1ccc(CCNC(=O)c2ccc(F)cc2)cc1 meas_value=4.65
molecule=CCCCCc1c(-c2ccc(C(F)(F)F)cc2)c(=O)c2cc([N+](=O)[O-])ccc2n1Cc1ccc(OC)cc1 meas_value=4.41
molecule=CCCCCc1c(Br)c(=O)c2cc([N+](=O)[O-])ccc2n1Cc1ccc(OC)cc1 meas_value=5.02
molecule=COc1ccc(-c2c(-c3ccc(C)cc3)[nH]c3ccc(N)cc3c2=O)cc1 meas_value=4.83
molecule=COc1ccc(Cn2c(-c3ccc(C)cc3)c(-c3ccccc3C=O)c(=O)c3cc([N+](=O)[O-])ccc32)cc1 meas_value=5.63
molecule=NS(=O)(=O)c1ccc(CCNC(=O)c2ccccc2)cc1 meas_value=4.99
molecule="COc1ccc(C(C)n2c(-c3ccc(C)cc3)cc(=O)c3cc([N+](=O)[O-])ccc32)cc1 (centres undefined)" meas_value=4.75
molecule="COC1Oc2ccccc2C(=O)/C1=C\\Nc1ccc(S(N)(=O)=O)cc1 (racemic)" meas_value=3.77
molecule="CC(C)OC1Oc2ccccc2C(=O)/C1=C\\Nc1cccc(S(N)(=O)=O)c1 (racemic)" meas_value=3.95
molecule="COC1Oc2ccc(C)cc2C(=O)/C1=C\\Nc1ccccc1S(N)(=O)=O (racemic)" meas_value=6.74

[a] NS(=O)(=O)c1ccc(CNS(=O)(=O)c2ccc(F)cc2)cc1
[b] Cc1ccc(S(=O)(=O)Nc2ccc(S(N)(=O)=O)cc2)cc1
Exercise: Returns the identifier with the smallest measured pIC50 among a and b . I would appreciate it if you answered with the label of your choice.
Solution: b
